System: glycogen synthase kinase-3 (GSK3A per assay name; protocol says GSK3B)
Assay: GSK3 binders on small-molecule microarrays, primary screen, biochemical, small-molecule microarray, 635 nm fluorescence, GSK3A (AID 1103); further: the record names both GSK3A and GSK3B
Details: small-molecule microarray binding, fluorescence 635 nm; higher = more signal
Classify by measured composite z-score: yes (1) if it is equal to or exceeds 0.6, no (0) if it is smaller.

Recorded results for 5 molecules are shown here.
Query: Does the reported composite z-score for NCCCCCNC(=O)[C@H]1C[C@H]2C(=O)N[C@@H](Cc3ccccc3)C(=O)N2[C@H]1c1ccc(O)cc1 fall at or above the 0.6 mark?
Response: no (0)

Query: Hello, I need to know if O=C1C2C=CC(C(O)c3cc(C(F)(F)F)cc(C(F)(F)F)c3)N(Nc3ccccc3F)C2C(=O)N1c1ccccc1 (stereo unspecified) has measured composite z-score not below 0.6. Thanks!
Response: yes (1)

Query: Assess whether reported composite z-score for COCC1C2CC[C@H]3C(OCc4ccc(OC)cc4)OC[C@]4(C)[C@H]3C2=C(CN4C(=O)OC(C)(C)C)[C@H](C)C1COC (stereo partly specified) sits at 0.6 or higher.
Response: yes (1)

Query: # bool: composite z-score of [N-]=[N+]=Nc1ccccc1[C@@H]1OC(c2ccc(OCCCO)cc2)=N[C@]1(Cc1ccccc1)C(=O)NCc1ccccc1 >= 0.6
Response: yes (1)

Query: Has C=C[C@@H](C)[C@H](O)c1ccc(OCCO)cc1 a recorded composite z-score greater than or equal to 0.6?
Response: no (0)

Others:
Query: Say whether C=CCC(OC(C)=O)[C@@H]1[C@@H](N(Cc2ccc(-c3cccc(C(F)(F)F)c3)o2)C(=O)c2ccc(C)cc2)c2cc(OCCCO)ccc2N1C(=O)Cc1ccc(OC)cc1 (stereo partly specified) shows composite z-score of 0.6 or more.
Response: no (0)

Query: Given the entry C=C[C@@H](OC)[C@H](OC(=O)Nc1ccc(SC)cc1)c1ccc(OCCO)cc1 , answer whether its composite z-score meets or surpasses 0.6.
Response: yes (1)

Query: hey, is composite z-score for this one >= 0.6? CCCCNC(=O)c1ccc(C#C[Si](C(C)C)(C(C)C)C(C)C)c(OC(C)=O)c1
Response: yes (1)

Query: composite z-score >= 0.6 for CCCCCCCCCCC(O)C1C=CC2C(=O)N(C)C(=O)C2N1Nc1cc(OC)c(OC)c(OC)c1 (stereo unspecified) ?
Response: no (0)

Query: Given COCC(=C=CC[C@@H](O)c1ccc(OCCO)cc1)CCO , state whether its composite z-score is at least 0.6.
Response: no (0)

Query: Given the entry C=C(C(=O)CC[C@@H](OC(=O)c1ccccc1-c1ccccc1C(=O)O)c1ccccc1OCCO)C(C)C , answer whether its composite z-score meets or surpasses 0.6.
Response: yes (1)

Query: State whether the measured composite z-score reaches 0.6, counting equality as reaching it, for COC(=O)[C@@]1(Cc2ccc(OC)cc2)[C@H]2c3cc(C(=O)N4CCCC4)n(Cc4ccc(OC(F)(F)F)cc4)c3C[C@H]2CN1C(=O)c1ccccc1
Response: no (0)

Query: Reported composite z-score reaches at least 0.6 for COCC(=C=CC[C@@H](O)c1cccc(OCCO)c1)CCO ?
Response: no (0)

Query: Does O=C1OCC=C[C@H]2OC34C=CCN(c5ccc6ccccc6c5)C(=O)[C@H]3N(CCCCCO)C(=O)[C@@H]4[C@@H]12 (stereo partly specified) have a reported composite z-score of at least 0.6?
Response: no (0)

Query: Decide: composite z-score of CCCNC(=O)[C@@]1(Sc2ccc(C)cc2)CC(=O)N(C(C)C)[C@@H]1c1ccc(CO)cc1I >= 0.6?
Response: no (0)

Query: Could you verify whether the entry CN1C(=O)C2C=CC(C(O)c3ccc(I)cc3)N(Nc3ccccc3)C2C1=O (stereo unspecified) shows composite z-score of no less than 0.6?
Response: yes (1)

Query: Identify whether the reported composite z-score of the following molecule is 0.6 or greater: CS(=O)(=O)CCOC(=O)C1=CC(CCCO)=CC(C2CC2)N(Cc2cccc(OC(F)(F)F)c2)C=C1C(=O)OCCS(C)(=O)=O (stereo unspecified)
Response: no (0)

Query: Could you verify whether the entry [N-]=[N+]=Nc1ccccc1C[C@]1(C(=O)NCc2ccccc2)COC(c2ccc(OCCCO)cc2)=N1 shows composite z-score of no less than 0.6?
Response: yes (1)

Query: Please tell me: is the molecule CN(C)C(=O)[C@@]1(Cc2ccccc2)COC(c2ccc(OCCCO)cc2)=N1 at or over 0.6 in terms of composite z-score?
Response: yes (1)

Query: Please tell me: is the molecule C=CCN1C(=O)[C@]2(O[C@H](CCO)[C@@H]([Si](C)(C)c3ccc(OC)cc3)[C@@H]2C)c2cc(N3C(=O)COc4ccccc43)ccc21 at or over 0.6 in terms of composite z-score?
Response: no (0)

Query: Identify whether the reported composite z-score of the following molecule is 0.6 or greater: O=C1C2C=CC(C(O)c3ccco3)N(Nc3ccccc3)C2C(=O)N1c1ccccc1 (stereo unspecified)
Response: no (0)

Query: Please check the record CC(C)C(=C=CC[C@@H](O)c1cccc(OCCO)c1)C[C@@H](O)c1ccccn1 and state if its composite z-score is at or above 0.6.
Response: no (0)

Query: Check the entry COCCOC(=O)N1C(=O)[C@@]2(c3cc(C#CC4(O)CCCCCC4)ccc31)[C@H](c1ccc(OCCO)cc1)N1[C@H](c3ccccc3)[C@H](c3ccccc3)OC(=O)[C@H]1[C@@H]2C(=O)Nc1nc2ccccc2s1 : does composite z-score equal or exceed 0.6?
Response: no (0)

Query: In plain terms: is recorded composite z-score at least 0.6 for C[C@@H]1ON(c2ccc(I)cc2)[C@H](c2ccc(OC(=O)OC(C)(C)C)cc2)[C@H]1C(=O)N1C(=O)OC[C@H]1Cc1ccccc1 ?
Response: yes (1)

Query: Is the recorded value of composite z-score equal to or greater than 0.6 for this molecule? COCCOC(=O)N1C(=O)[C@@]2(c3cc(C#CCNC(N)=O)ccc31)[C@H](c1ccc(O)cc1)N1[C@H](c3ccccc3)[C@H](c3ccccc3)OC(=O)[C@H]1[C@@H]2C(=O)N1CCN(c2ncccn2)CC1
Response: yes (1)

---

Target: Calmodulin-1 (Homo sapiens) (UniProt P0DP23)
Assay: CALM1 binders on microarrays, EGTA buffer, profiling panel, biochemical, small-molecule microarray, Cy5-labelled CALM1 (AID 1111);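 further: labelled calmodulin applied in Tris saline Tween buffer holding calcium plus EGTA and DTT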
Details: Cy5-CALM1 binding fluorescence, higher = more signal
Overview of reported composite z-score across a group of compounds:
Enter a number only.

Some compounds with known composite z-score results, for comparison:
COC(=O)C(CC#Cc1ccc2c(c1)[C@]1(C(=O)N2)[C@H](C(=O)Nc2nc3ccccc3s2)[C@H]2C(=O)O[C@H](c3ccccc3)[C@H](c3ccccc3)N2[C@@H]1c1ccc(OCCO)cc1)C(=O)OC yielded composite z-score of 1.52

Entry CC1(C)C(=O)C(c2ccccc2)=C2CN3C(=O)N(CCc4ccccc4)C(=O)C3(Cc3ccc(F)cc3)C=C21 (stereo unspecified) — recorded composite z-score = 1.11

Form field composite z-score, entry Cc1ccc([C@H]2C(C(=O)O)=C[C@@H](C(C)(C)C)N2S(=O)(=O)c2ccc(C)cc2)cc1 : 1.94

composite z-score measured on O=C1C2C=CC(C(O)c3ccco3)N(Nc3ccccc3)C2C(=O)N1c1ccccc1 (stereo unspecified) = -0.136

response.value for COC(=O)C(CC#Cc1ccc2c(c1)[C@]1(C(=O)N2)[C@H](c2ccc(O)cc2)N2[C@H](c3ccccc3)[C@H](c3ccccc3)OC(=O)[C@H]2[C@@H]1C(=O)N1CCCCCCC1)C(=O)OC (field: composite z-score) = 2.75

Next item in the queue.
Entry COc1ccc([Si](C)(C)[C@@H]2[C@@H](CCn3cc([C@H](O)c4ccccc4)nn3)O[C@]3(C(=O)N(Cc4cccc(N5C(=O)c6cccc7cccc5c67)c4)c4ccccc43)[C@H]2C)cc1 ; composite z-score = 0.114

---

Here the recorded composite z-score is given for each entry.
Assay: compound binding in COS7 lysate, probe aLAP1, primary screen, cell lysate, small-molecule microarray (AID 1124);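 further: lysate comes from COS7 cells expressing LAP1 and is applied at 0.3 µg/mL; score merges spot fluorescence near 667 nm with signal-to-noise over triplicate slides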
Conditions: probe aLAP1, fluorescence, higher = more signal
The reply should be a number, written without any unit.

Recorded composite z-score, per entry:
Please fill in: composite z-score reported for CC(C)CNC(=O)[C@@H]1c2ccccc2C(=O)N(C2CCCCC2)[C@H]1c1ccc(CO)cc1 = -0.264

The recorded composite z-score for C=C(/C(=C/C[C@@H](OC(C)=O)c1ccc(CO)o1)c1cc(C(=O)OC)ccc1OC)C(C)C is 0.0806

The recorded composite z-score for entry COC(=O)[C@@]1(Cc2ccc(OC)cc2)[C@H]2c3cc(C(=O)N4CCCC4)n(Cc4cc(C)n(C)n4)c3C[C@H]2CN1C(=O)c1ccccc1 equals 0.637

Memo: CC(C)CCC[C@@H](C)[C@H]1CC[C@@]2(C)C3=C(CC[C@]12C)[C@@]1(C)CC[C@H](OC(=O)c2ccccc2)C(C)(C)C1CC3 (some centres undefined) , reported composite z-score: -0.0606

Further cases:
Measured composite z-score of C=CCNC(=O)[C@H]1[C@@H]2C(=O)O[C@@H](c3ccccc3)[C@@H](c3ccccc3)N2[C@@H](c2ccc(OCCO)cc2)[C@]12C(=O)Nc1ccc(C#CCNC(N)=O)cc12 : -0.113

Kindly note the recorded composite z-score for O=C1C[C@@](C(=O)NCc2ccccc2)(c2ccc([N+](=O)[O-])cc2)[C@@H](c2ccc(CO)cc2I)N1CC12CC3CC(CC(C3)C1)C2 , which is 0.0884

Reported composite z-score of COc1ccc([Si](C)(C)[C@@H]2[C@@H](CCn3cc([C@H](O)c4ccccc4)nn3)O[C@]3(C(=O)N(c4ccccc4)c4ccccc43)[C@H]2C)cc1 : -0.232

For reference, reported composite z-score for CN(C)C(=O)[C@]1(CCS(=O)(=O)c2ccccc2)N=C(c2ccc(OCCCO)cc2)O[C@@H]1c1ccccc1 stands at 0.565

Noted for CCC(CC)C(O)C1C=CC2C(=O)N(c3ccccc3)C(=O)C2N1Nc1ccc([N+](=O)[O-])cc1 (centres undefined) : its composite z-score reads 1.35
